# Kd per record follows
Molecular target: T1, RBM45 RRM1-2 WT (Homo sapiens, UniProt Q8IUH3 23-202)
T1 sequence: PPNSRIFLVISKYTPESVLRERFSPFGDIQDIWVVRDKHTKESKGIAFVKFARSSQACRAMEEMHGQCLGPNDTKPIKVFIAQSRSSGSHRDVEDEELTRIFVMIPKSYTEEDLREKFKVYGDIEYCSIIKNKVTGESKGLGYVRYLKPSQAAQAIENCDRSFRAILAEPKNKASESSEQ
Assay: fluorescence polarization
Write the value in nM as a bare number.

Use the examples below as a reference point.
GGACGG (ssDNA) [GGACGG ssDNA] :: 805
GGACGG (ssRNA) [GGACGG RNA] :: 457

Which Kd value belongs to UUUUUU (ssRNA) [polyU 6-mer RNA] ?
57200
